# Test system: tubulin
# PROTOCOL: Tubulin polymerization assay
# Assay type: biochemical
# Set-up: key: a compound showing 0 to 50% inhibition at 20 μM is reported as score 1; Score 2 compounds are defined as compound showing more than 50% inhibition at 20 μM and less than 50% inhibition at 5 μM; a compound showing more than 50% inhibition at 5 μM is reported as score 3
# CONDITION_LABEL: tested at 20 μM and 5 μM
Listing of entries alongside the reported tubulin polymerisation score.
No unit in the answer, please; the number alone is enough.

Sure, the documented tubulin polymerisation score for CCc1cc2ccc(C(C)(C#N)CCOc3ccc(C#N)cc3)cc2[nH]c1=O (centres unmarked) is 2

CCc1cc2ccc(C(C)(C#N)Cc3cccc(CO)n3)cc2[nH]c1=O (centres unmarked) has a reported tubulin polymerisation score of 2

Please fill in: tubulin polymerisation score reported for CCc1cc2ccc(C(C)(C#N)Cc3cccc(N4CCCC4)n3)cc2[nH]c1=O (centres unmarked) = 2

----------
# Test system: PC-3 cells
# PROTOCOL: Antiproliferative activity, Alamar Blue assay, PC-3 cells
# Type: cell-based, human
# CONDITION_LABEL: Homo sapiens, PC-3, PC3 cells, Alamar Blue; read-out: PC3 antiproliferative activity pIC50 (converted)
MEASURE: log10 of IC50 (log10 of the value in µM)
Quick note: numbers are log10 of IC50, with µM as the unit.

[[record]]
compound = "CCc1cc2ccc(C(C)(C#N)Cc3cccc(C#CCN(C)C)c3)cc2[nH]c1=O (centres unmarked)"
val = 0.80

[[record]]
compound = "CCc1cc2ccc(C(C)(C#N)Cc3cccc(CN)c3)cc2[nH]c1=O (centres unmarked)"
val = -0.30

[[record]]
compound = "CCc1cc2ccc(C(C)(C#N)Cc3nc(C#N)cc(N(C)C)n3)cc2[nH]c1=O (centres unmarked)"
val = -0.20

[[record]]
compound = "CCc1cc2ccc(C(C)(C#N)Cc3cccc(C#CCOC)c3)cc2[nH]c1=O (centres unmarked)"
val = 0.00

[[record]]
compound = "CCc1cc2ccc(C(C)(C#N)Cc3nc(C#N)cc(OC)n3)cc2[nH]c1=O (centres unmarked)"
val = -0.60

[[record]]
compound = "CCc1cc2ccc(C(C)(C#N)Cc3cc(N(C)C)nc(Cl)n3)cc2[nH]c1=O (centres unmarked)"
val = -0.10

[[record]]
compound = "CCc1cc2ccc(C(C)(C#N)Cc3cnc(Cl)nc3Cl)cc2[nH]c1=O (centres unmarked)"
val = 0.30

[[record]]
compound = "CCc1cc2ccc(C(C)(C#N)Cc3cccc(-c4ccc[nH]4)c3)cc2[nH]c1=O (centres unmarked)"
val = 0.70

[[record]]
compound = "CCc1cc2ccc(C(C)(C#N)Cc3cccc(OC)n3)cc2[nH]c1=O (centres unmarked)"
val = -0.60

[[record]]
compound = "CCc1cc2ccc([C@@](C)(C#N)CCOc3ccc(C#N)cc3)cc2[nH]c1=O (single isomer, unassigned)"
val = -0.40


Reported log10 of IC50 of CCc1cc2ccc(C(C)(C#N)Cc3cccc(Br)n3)cc2[nH]c1=O (centres unmarked) : -0.20

Field log10 of IC50 (entry CCc1cc2ccc(C(F)(C#N)Cc3ccccc3)cc2[nH]c1=O (centres unmarked) ) reads 0.90

CCc1cc2ccc(C(C)(C#N)Cc3cccc(CO)n3)cc2[nH]c1=O (centres unmarked) has a reported log10 of IC50 of 0.60

Record summary for CCc1cc2ccc(C(C)(C#N)Cc3cccc(C#C[Si](C)(C)C)c3)cc2[nH]c1=O (centres unmarked) : reported log10 of IC50 = -0.20

// recorded log10 of IC50 for CCc1cc2ccc(C(C)(C#N)Cc3cccc(N4CCC(N(C)C)C4)n3)cc2[nH]c1=O (centres unmarked) : 0.70

Looking up CCc1cc2ccc(C(C)(C#N)Cc3cc(Br)cc4c3OCC4)cc2[nH]c1=O (centres unmarked) , I found its log10 of IC50 recorded as -0.10

The compound CCc1c(Cl)c2ccc(C(C)(C#N)Cc3cccc(C#N)c3)cc2[nH]c1=O (centres unmarked) showed log10 of IC50 equal to 0.80

----------
Entries and their log10 of IC50
# TARGET_DESC: TANK-2 enzyme (Homo sapiens, UniProt Q9H2K2)
# Construct: made in house
# Sequence (Q9H2K2 1-1166): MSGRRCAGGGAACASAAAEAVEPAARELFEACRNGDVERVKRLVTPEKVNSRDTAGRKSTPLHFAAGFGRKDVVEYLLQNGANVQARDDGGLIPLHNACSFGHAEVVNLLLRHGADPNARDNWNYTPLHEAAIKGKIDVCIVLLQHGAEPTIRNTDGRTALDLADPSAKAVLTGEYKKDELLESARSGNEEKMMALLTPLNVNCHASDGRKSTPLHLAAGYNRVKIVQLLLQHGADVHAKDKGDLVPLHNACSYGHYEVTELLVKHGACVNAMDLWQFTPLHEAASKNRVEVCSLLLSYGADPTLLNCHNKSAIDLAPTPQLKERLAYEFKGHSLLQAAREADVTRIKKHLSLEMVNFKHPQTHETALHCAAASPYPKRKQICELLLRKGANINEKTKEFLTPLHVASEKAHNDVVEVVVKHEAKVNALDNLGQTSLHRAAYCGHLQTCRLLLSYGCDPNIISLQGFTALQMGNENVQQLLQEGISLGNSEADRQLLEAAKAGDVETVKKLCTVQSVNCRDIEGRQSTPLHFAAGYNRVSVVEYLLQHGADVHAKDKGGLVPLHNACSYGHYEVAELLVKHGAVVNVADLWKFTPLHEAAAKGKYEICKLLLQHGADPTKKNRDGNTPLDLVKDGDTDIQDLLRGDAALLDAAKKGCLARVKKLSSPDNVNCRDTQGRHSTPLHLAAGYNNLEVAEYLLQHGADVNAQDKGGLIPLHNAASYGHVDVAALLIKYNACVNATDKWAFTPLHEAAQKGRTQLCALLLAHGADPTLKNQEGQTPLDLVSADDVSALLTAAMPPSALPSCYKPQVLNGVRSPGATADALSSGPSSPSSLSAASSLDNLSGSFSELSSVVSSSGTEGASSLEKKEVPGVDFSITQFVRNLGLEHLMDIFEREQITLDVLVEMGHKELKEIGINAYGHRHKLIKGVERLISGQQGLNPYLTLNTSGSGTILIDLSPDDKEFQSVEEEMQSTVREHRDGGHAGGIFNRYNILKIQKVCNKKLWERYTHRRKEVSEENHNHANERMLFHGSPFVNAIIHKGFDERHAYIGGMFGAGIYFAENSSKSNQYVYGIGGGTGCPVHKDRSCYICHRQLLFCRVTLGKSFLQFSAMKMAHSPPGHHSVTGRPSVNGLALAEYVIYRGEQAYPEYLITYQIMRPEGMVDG
# PROTOCOL: In vitro Scintillation Proximity Assay (SPA) for TANK-2 inhibitory activity
# Type: biochemical
# CONDITION_LABEL: read-out: in vitro SPA assay TANK-2 pIC50 (converted)
Heads up: the numbers are on a log10 scale; they represent IC50 in nM.

Please review the entries below; each comes with its answer.
[[record]]
molecule = "Cc1cc2ccc(C(C)(C#N)Cc3noc(-c4cccc(C(F)(F)F)c4)n3)cc2[nH]c1=O (stereo not drawn)"
measure = "log10 of IC50"
val = 2.30

[[record]]
molecule = "CCc1cc2ccc([C@@](C)(C#N)Cc3cc(OC)nc(C)n3)cc2[nH]c1=O (single isomer, unassigned)"
measure = "log10 of IC50"
val = 1.70

[[record]]
molecule = "CCc1cc2ccc(C(C)(C#N)Cc3cccc(C#C[Si](C)(C)C)c3)cc2[nH]c1=O (stereo not drawn)"
measure = "log10 of IC50"
val = 3.60


// CCc1cc2ccc(C(C)(C#N)CCOc3ccccc3F)cc2[nH]c1=O (stereo not drawn) : log10 of IC50 value = 2.50

log10 of IC50 reported for this molecule CCc1cc2ccc(C(C)(C#N)Cc3cccc(OCCS(C)(=O)=O)c3)cc2[nH]c1=O (stereo not drawn) : 2.30

Lab note: measured log10 of IC50 of CCc1cc2ccc(C(C)(C#N)Cc3cc(Cl)ccc3OC)cc2[nH]c1=O (stereo not drawn) was 2.10

Sample CCc1cc2ccc([C@](C)(C#N)Cc3cc(F)cc(F)c3)cc2[nH]c1=O ; log10 of IC50 observed: 1.90

Entry CCc1cc2ccc(C(C)(C#N)Cc3cccc(CNCCN4CCOCC4)c3)cc2[nH]c1=O (stereo not drawn) — recorded log10 of IC50 = 2.00

----------
# TARGET_DESC: TANK-2 enzyme (Homo sapiens, UniProt Q9H2K2)
# Construct: made in house
# PROTOCOL: In vitro Scintillation Proximity Assay (SPA) for TANK-2 inhibitory activity
# Assay type: biochemical
# CONDITION_LABEL: read-out: in vitro SPA assay TANK-2 pIC50 (converted)
Note to self: IC50 under 100 nM means yes, ties and anything higher get no.

Check out these entries, answers already filled in.
[[record]]
compound = "CCc1cc2ccc(C(C)(C#N)Cc3cccc(Br)n3)cc2[nH]c1=O (centres unmarked)"
group = "no"

[[record]]
compound = "CCc1cc2ccc(C(C)(C#N)Cc3cc(F)cc(C#N)c3)cc2[nH]c1=O (centres unmarked)"
group = "yes"

[[record]]
compound = "CCc1cc2ccc(C(C#N)(Cc3ccccc3)CC3CC3)cc2[nH]c1=O (centres unmarked)"
group = "no"


Incoming: For CCc1cc2ccc([C@](C)(C#N)[C@@H](C)c3ccccc3)cc2[nH]c1=O , is the recorded IC50 below the cut-off of 100 nM?
Outgoing: no

Incoming: Item Cc1cc2ccc([C@@](C)(C#N)[C@@H]3CCc4cc(Br)ccc43)cc2[nH]c1=O : IC50 beneath 100 nM, strictly?
Outgoing: no

Incoming: Please check: IC50 for CCc1cc2ccc(C(C)(C#N)Cc3cccc(CNC)c3)cc2[nH]c1=O (centres unmarked) , strictly under 100 nM or not?
Outgoing: yes

Incoming: Dear reviewer, please state whether CCc1cc2ccc(C(C)(C#N)Cc3ccc(Cl)nc3OC)cc2[nH]c1=O (centres unmarked) has IC50 strictly beneath 100 nM.
Outgoing: no
